Where these numbers come from: patent US20260216294A1

Please provide measured Emax at 10 µM for the entries that follow.
System: L6-myotubes
Method Summary: Glucose uptake in differentiated L6-myotubes (Biological Example 2)
Assay type: cell-based
Condition Parameters: glucose uptake in differentiated L6-myotubes; compound at 10 μM, activity relative to isoproterenol at 10 μM; read-out: Biological example 2 (GU)

Worked cases, answers included:
Smiles Notation: O[C@H](c1cncc(F)c1)C12CCC(CCc3ccc(OC(F)(F)F)cc3)(CC1)N2
Emax at 10 µM: < 25%
//
Smiles Notation: CC(=O)N[C@H]1CC[C@H](CC(C)(C)NC[C@H](O)c2cccc(C#N)n2)CC1
Emax at 10 µM: > 75%
//
Smiles Notation: CC(=O)N(Cc1ccccc1)[C@H]1CC[C@H](C[C@@H]2CC[C@H]([C@@H](O)c3cccc(F)c3)N2)CC1
Emax at 10 µM: < 25%
//
Smiles Notation: COC(=O)[C@H]1CC[C@@H](CCC(C)(C)NC[C@H](O)c2cccc(F)c2)CC1
Emax at 10 µM: > 75%

Batch request: Emax at 10 µM for each of the following compounds.
1. CC1(C)C[C@@H]([C@@H](O)c2ccccc2F)N1
2. CC(=O)N[C@H]1CC[C@@H](C[C@@H]2CC[C@H]([C@@H](O)c3cccc(F)c3)N2)CC1
3. O[C@@H](CNCCC[C@H]1CC[C@H](O)CC1)c1cncc(F)c1
4. O[C@@H](c1cncc(F)c1)C12CCC(COCc3ccc(OC(F)(F)F)cc3)(CC1)N2
5. COc1ccc(C[C@@]2(C)CC[C@H]([C@@H](O)c3cccc(F)c3)N2)cc1
6. O[C@H](c1cccc(F)c1)C12CCC(C/C=C/c3ccccc3)(CC1)N2

Completion:
1: 25 to 50%; 2: < 25%; 3: 25 to 50%; 4: < 25%; 5: > 75%; 6: > 75%

Batch request: Emax at 10 µM for each of the following compounds.
1. CC(=O)N[C@H]1CC[C@H](CC(C)(C)NC[C@H](O)c2cccc(F)c2)CC1
2. O[C@H](c1cccc(F)c1)C12CCC(Cc3ccc(OC(F)(F)F)cc3)(CC1)N2
3. CO[C@H]1CC[C@H](C[C@H]2CC[C@H]([C@H](O)c3ccccc3F)N2)CC1
4. CC(C)(CC[C@H]1CC[C@@H](O)CC1)NC[C@H](O)c1cncc(F)c1
5. COc1ccc(C[C@@H]2CC[C@H]([C@H](O)c3cccc(F)c3)N2)cc1
6. CC(C)(C[C@H]1CC[C@H](NS(=O)(=O)C2CC2)CC1)NC[C@H](O)c1cccc(F)c1

Completion:
> 75%
< 25%
> 75%
> 75%
> 75%
50 to 75%

----------
Please provide measured Emax at 10 µM for the entries that follow.
System: L6-myotubes
Method Summary: Glucose uptake in differentiated L6-myotubes (Biological Example 2)
Assay type: cell-based
Condition Parameters: glucose uptake in differentiated L6-myotubes; compound at 10 μM, activity relative to isoproterenol at 10 μM; read-out: Biological example 2 (GU)

Worked cases, answers included:
Smiles Notation: CN(C)S(=O)(=O)[C@H]1CC[C@@H](CC(C)(C)NC[C@H](O)c2cncc(F)c2)CC1
Target Desc: L6-myotubes
Emax at 10 µM: > 75%
--
Smiles Notation: CC12CC(C1)[C@H]([C@H](O)c1cccc(N)c1F)N2
Target Desc: L6-myotubes
Emax at 10 µM: > 75%
--
Smiles Notation: CC(C)(C[C@H]1CC[C@H](NC(=O)OC(C)(C)C)CC1)NC[C@H](O)c1cccc(C(F)(F)F)n1
Target Desc: L6-myotubes
Emax at 10 µM: > 75%
--
Smiles Notation: O[C@H](c1cccc(F)c1)C12CCC(COCc3ccc(OC(F)(F)F)cc3)(CC1)N2
Target Desc: L6-myotubes
Emax at 10 µM: < 25%
--
Smiles Notation: O[C@@H](CNCC[C@H]1CC[C@H](OCc2ccccc2)CC1)c1cccc(F)c1
Target Desc: L6-myotubes
Emax at 10 µM: 25 to 50%
--
Smiles Notation: O[C@H](c1cccc(F)c1)C12CCC(COc3ccc(Cl)cc3)(CC1)N2
Target Desc: L6-myotubes
Emax at 10 µM: > 75%
--
Smiles Notation: CCS(=O)(=O)N[C@H]1CC[C@H](CC(C)(C)NC[C@H](O)c2cncc(F)c2)CC1
Target Desc: L6-myotubes
Emax at 10 µM: 50 to 75%
--
Smiles Notation: CC(C)(NC[C@H](O)c1cccc(F)c1)[C@H]1CC[C@@H](C(=O)O)CC1
Target Desc: L6-myotubes
Emax at 10 µM: 50 to 75%

Batch request: Emax at 10 µM for each of the following compounds.
1. O[C@@H](CNCCC[C@H]1CC[C@H](OCc2ccccc2)CC1)c1cccc(F)c1
2. CC(C)(C[C@H]1CC[C@@H](NC(=O)OC(C)(C)C)CC1)NC[C@H](O)c1cccc(C#N)n1
3. O[C@@H](CNCCC[C@H]1CC[C@@H](O)CC1)c1cncc(F)c1
4. CN(C)S(=O)(=O)[C@H]1CC[C@H](CC(C)(C)NC[C@H](O)c2cncc(F)c2)CC1
5. O[C@@H](CNC[C@H]1CC[C@@H](O)CC1)c1cncc(F)c1
6. O[C@@H](c1cncc(F)c1)C12CCC(CCCc3ccccc3)(CC1)N2
7. CC12CC(C1)[C@H]([C@H](O)c1cccc(Cl)c1)N2

Completion:
1: 25 to 50%; 2: 50 to 75%; 3: 50 to 75%; 4: 50 to 75%; 5: 25 to 50%; 6: 50 to 75%; 7: > 75%

Batch request: Emax at 10 µM for each of the following compounds.
1. O[C@@H](CNC[C@H]1CC[C@H](O)CC1)c1cccc(F)c1
2. O[C@@H](c1cccc(F)c1)C12CCC(COCc3ccc(OC(F)(F)F)cc3)(CC1)N2

Completion:
["25 to 50%", "< 25%"]
